Attribution: a melting point compilation (Tetko et al.; mined from patent text by program, amines drawn as free bases though some values may be those of a salt)

observationType: melting point

- compound: "CCC1C(=O)Nc2ccc(-c3ccc(C#N)n3C)cc21 (stereo not given)"
  melting point: "145 to 147 °C"

Data request: Which melting point value belongs to `COc1ccc(C=CC=C(C#N)C#N)cc1` ?
Data returned: 160 °C

Data request: Likewise for `N#CCCNC(=O)C1=CC(CF)(CF)Oc2ccc(C(F)(F)C(F)(F)C(F)(F)F)cc21` ?
Data returned: 135 to 136 °C

Data request: Likewise for `O=c1c2ccccc2n(SC(Cl)(Cl)Cl)c(=O)n1SC(Cl)(Cl)Cl` ?
Data returned: 154 to 156 °C

Data request: Likewise for `Cn1nnnc1C(CBr)=C(c1ccc(F)cc1)c1ccc(F)cc1` ?
Data returned: 159 to 160 °C

Data request: Likewise for `COc1cc2ncnc(N3CCCc4cc(C)ccc43)c2cc1OC` ?
Data returned: 147 to 148 °C

Data request: Likewise for `Cc1c(F)c(Oc2cccc(C(=N)N)c2)nc(Oc2cccc(C(=N)N)c2)c1F` ?
Data returned: > 210 °C

###

observationType: melting point

- molecule: "COc1ccc(C(=O)Nc2ccc(Cl)c(Cl)c2)cc1Nc1cccc(C(F)(F)F)c1"
  observationType: "melting point"
  recordedValue: "154 to 155 °C"
- molecule: "COc1cc2c(cc1OC)-c1c(C#N)sc(=S)n1CC2"
  observationType: "melting point"
  recordedValue: "228 °C"

Data request: Which melting point value belongs to `CCCCN(Cc1ccc(-c2ccccc2-c2nnnn2C(c2ccccc2)(c2ccccc2)c2ccccc2)cc1)c1nc(SC)ncc1C(=O)OCC` ?
Data returned: 122 to 124 °C

###

observationType: melting point

- compound: "C=CS(=O)(=O)c1ccc(C(=O)O)cc1"
  melting point: "228 °C"
- compound: "CN1C(=O)CN(c2ccccc2)C1=S"
  melting point: "112 °C"
- compound: "CC(C)(C)C(=O)Nc1ccccc1CC1NCCc2ccccc21 (stereo unspecified)"
  melting point: "168 °C"
- compound: "CN1CC(c2ccccc2)=C(O)C1=O"
  melting point: "245 to 250 °C"
- compound: "Cc1ccc(N2C(=O)c3nccnc3C2OC(=O)Oc2ccccc2)nc1 (stereo unspecified)"
  melting point: "176 °C"
- compound: "COc1ccc(-c2cccc3c(C(C)C)c(C)nn23)c(Cl)c1"
  melting point: "112 to 115 °C"

Data request: Which melting point value belongs to `COC(C)(OC)C(C#N)=Cc1ccccc1` ?
Data returned: 45 to 46 °C

Data request: Likewise for COc1ccc(C(=O)Nc2c(C)c(C)c3c(c2C)C(c2ccc(C(C)C)cc2)C2(CCN(C)CC2)O3)cc1 (stereo unspecified) ?
Data returned: 277 to 278 °C

Data request: Likewise for `COC(=O)CCC(=O)c1cccc(Cl)c1O` ?
Data returned: 60 to 62 °C

Data request: Likewise for `Cc1c(C(=O)Nc2ccc(N3CCN(C)CC3)c(C#N)c2)cnn1-c1ccc(F)cc1` ?
Data returned: 205 to 207 °C

Data request: Likewise for `Cc1nc(N2CCN(Cc3ccc(C(F)(F)F)cc3)C2=O)sc1-c1cc[nH]n1` ?
Data returned: 212 to 213 °C

###

observationType: melting point

- compound: "C=COc1nc2c(c3ccccc13)c1cc(Cl)ccc1n2C"
  recordedValue: "121 to 124 °C"

Data request: Which melting point value belongs to `CNc1cc(NS(=O)(=O)c2ccc(NC(C)=O)cc2)nc(N2CCCC2)n1` ?
Data returned: 271 to 274 °C

Data request: Likewise for CCC(=O)OC1(C(=O)CCl)CCC2C3CCC4CC(=O)CCC4(C)C3(F)C(=O)CC21C (centres undefined) ?
Data returned: 168 °C

Data request: Likewise for COc1ccc2c(c1)CCC1=C2CCC2(C)C(=O)CC=C12 (centres undefined) ?
Data returned: 111 to 113 °C

Data request: Likewise for `Cc1nc(NC(=O)Cc2cccs2)c(Br)c(C)c1Br` ?
Data returned: 154 °C

Data request: Likewise for `COC(=O)[C@@H]1C[C@H](OC(=O)Nc2ccc([N+](=O)[O-])cc2)C(=O)[C@H]2[C@@]1(C)CC[C@H]1C(=O)O[C@H](c3ccoc3)C[C@]21C` ?
Data returned: 251 to 253 °C

Data request: Likewise for `OCCCc1cc2c(cc1O)CCO2` ?
Data returned: 103 to 104 °C

Data request: Likewise for `Cc1oc(-c2ccccc2)nc1COc1ccc2cc(Cn3cc(CCC(=O)O)c(-c4ccccc4)c3)ccc2c1` ?
Data returned: 122 to 123 °C

Data request: Likewise for `CCCc1nc2ccccc2c(=O)n1Cc1ccc(-c2ccccc2-c2nc(=O)o[nH]2)cc1` ?
Data returned: 251 to 253 °C

###

# melting point listing for each entry below

- compound: "CCc1ccc(OC(CC)C(=O)OC2CC(O)C=C3C=CC(C)C(CCC4CC(O)CC(=O)O4)C32)cc1 (mixture of isomers)"
  melting point: "139 to 140 °C"
- compound: "CC(C)CCCC(C)C1CCC2C3CC=C4CC(OCCCCCCS)CCC4(C)C3CCC12C (centres undefined)"
  melting point: "89 to 90 °C"
- compound: "CN1C(=O)CC[C@]2(C)c3ccc(C=Cc4cnc5ccccc5c4)cc3CC[C@@H]12"
  melting point: "181 to 183 °C"
- compound: "NC(=O)c1cccc(-c2cccc3cc(Cc4cccc(C(F)(F)F)c4)sc23)c1"
  melting point: "153 to 154 °C"
- compound: "O=C(O)C1=CSC2C(=Cc3nc4ncc5c(n4n3)CCC3(C5)OCCO3)C(=O)N12 (centres undefined)"
  melting point: "> 250 °C"
- compound: "CCN(CC)C(=O)c1ccc(S(=O)(=O)N(CC)CC)o1"
  melting point: "56.4 °C"
- compound: "CSC(=O)N(C)c1nnc(-c2cccnc2)s1"
  melting point: "192 to 194 °C"
- compound: "CC(C)Oc1cc(N2NC(C)(C)NC2=O)c(Cl)cc1Cl"
  melting point: "162 to 163 °C"
- compound: "CCCc1nn(C)c2c(=O)[nH]c(-c3cc(S(=O)(=O)N4CCN(C)CC4)ccc3O)nc12"
  melting point: "283 to 284 °C"
- compound: "COc1ccc(C2(C)Cc3cc(OCC(=O)O)c(Cl)c(Cl)c3C2=O)cc1 (centres undefined)"
  melting point: "173 to 175 °C"

Data request: Which melting point value belongs to CC(C)(C)c1cccc(S(=O)(=O)n2c(C(C)(O)c3ccc(C(=O)O)s3)cc3cc(C(F)(F)F)ccc32)c1 (centres undefined) ?
Data returned: 80 °C

Data request: Likewise for `c1ccc(-c2ccc3c(CCN4CCCCC4)c(-c4ccccc4)[nH]c3c2)cc1` ?
Data returned: 129 to 131 °C

Data request: Likewise for `CN1C(=O)C(C(=O)Nc2ccc(Oc3ccc(C(F)(F)F)cn3)cc2)C(=O)N(C)C1=O` ?
Data returned: 180 to 181 °C

Data request: Likewise for `Nc1nc(NCCN2CCC(Nc3nc4ccccc4n3Cc3ccc(F)cc3)CC2)ccc1[N+](=O)[O-]` ?
Data returned: 206 °C

###

# melting point listing for each entry below

Known results for compounds:
- compound: "CCCCC(=O)c1c(CN(CC)C(C)(C)C)nc2cc(OC)c(OC)cc2c1-c1ccc(OC)c(OC)c1"
  melting point: "137 to 139 °C"
- compound: "CSc1ccc([N+](=O)[O-])cn1"
  melting point: "111 to 112 °C"
- compound: "CCCc1c(Cl)sc2[nH]c(=O)c(=O)[nH]c12"
  melting point: "285 to 287 °C"

Data request: Which melting point value belongs to `C=CCNC(=O)c1ccccc1I` ?
Data returned: 105 to 106 °C

Data request: Likewise for COC(=O)c1c(C)nc(C)c(C(=O)OCC2CCCO2)c1-c1ccccc1[N+](=O)[O-] (configuration not stated) ?
Data returned: 69 to 70 °C

###

# melting point listing for each entry below

Known results for molecules:
- molecule: "C[Si](C)(C)C#CCn1nc(-c2ccc(F)c(Br)c2)ncc1=O"
  recordedValue: "103 to 105 °C"
- molecule: "O=C(O)CCCN(C(=O)c1cccc(C(F)(F)F)c1)c1cccc2ccccc12"
  recordedValue: "128 to 129 °C"
- molecule: "NC(=O)C(=O)NCCC(F)=C(F)F"
  recordedValue: "190 to 220 °C"
- molecule: "COc1cc(OC)c2cc(-c3ccc([N+](=O)[O-])cc3)oc2c1"
  recordedValue: "192 to 193 °C"

Data request: Which melting point value belongs to COc1ccc(C(OCC2OC(n3cc(C)c(=O)[nH]c3=O)CC2O)(c2ccccc2)c2ccc(OC)cc2)cc1 (stereo not drawn) ?
Data returned: 124 to 126 °C

Data request: Likewise for `NS(=O)(=O)c1cccc(-c2cn(-c3cc(-c4ccc(C(F)(F)F)cc4)cc(C(F)(F)F)n3)cn2)c1` ?
Data returned: > 250 °C

Data request: Likewise for `Cc1cc(N2CCN(c3c(C)c(C)c4c(c3C)CC(C)(C)O4)CC2)n2nccc2n1` ?
Data returned: 180 to 182 °C

Data request: Likewise for `O=C(O)CCC(=O)c1ccc2[nH]c3nc(Cl)ccc3c2c1` ?
Data returned: 281 °C

Data request: Likewise for `CCOC(=O)c1c(C)[nH]c(-c2ccncc2)c1C` ?
Data returned: 180 to 182 °C

Data request: Likewise for CC(Oc1ccc(CCNCC(O)COc2ccccc2)cc1)C(N)=O (stereo not drawn) ?
Data returned: 117 to 119 °C

Data request: Likewise for `COc1ccc(N2CCOCC2)c2sc(C#N)nc12` ?
Data returned: 145 to 147 °C
